test: Metabolite identification in dog plasma after intravenous administration of parent compound; assay type: in vivo, beagle dogs; conditions: 2.0 mg/kg intravenous parent; 20 min, 40 min and 1 h samples
Endpoint: Relative Abundance of metabolite, Dog Plasma (IV)

{"columns": ["Compound", "Reading"],
 "data": [
  ["CC(CO)(COc1ccc2c(c1)ncn2-c1ccc2cccc(N3CCC(N)CC3)c2n1)C(=O)O (stereo not shown) [Metabolite M2]", "−"],
  ["CC(CO)(COc1ccc2c(c1)ncn2-c1ccc2cccc(N3CCC(N)CC3)c2n1)COC1O[C@H](C(=O)O)[C@@H](O)[C@H](O)[C@H]1O (stereo in doubt) [Metabolite M5]", "−"],
  ["NC1CCN(c2cccc3ccc(-n4cnc5cc(O)ccc54)nc23)CC1 [Metabolite M8]", "−"]
]}

* * *

experiment: Metabolite identification, human cryopreserved hepatocyte incubation of parent compound; format: in vitro ADME; conditions: parent incubated up to four hours
Endpoint: Relative Abundance of metabolite, Human Hepatocytes

{"columns": ["Molecule", "Reading"],
 "data": [
  ["NC1CCN(c2cccc3ccc(-n4cnc5cc(O)ccc54)nc23)CC1 [Metabolite M8]", "−"],
  ["CC(CO)(CO)COc1ccc2c(c1)ncn2-c1ccc2cccc(N3CCC(N)CC3)c2n1 [Metabolite M1]", "+++ (major metabolite)"],
  ["CC(CO)(COc1ccc2c(c1)ncn2-c1ccc2cccc(N3CCC(N)CC3)c2n1)C(=O)O (stereo not shown) [Metabolite M2]", "+++ (major metabolite)"],
  ["CC(CO)(COc1ccc2c(c1)ncn2-c1ccc2cccc(N3CCC(N)CC3)c2n1)COC1O[C@H](C(=O)O)[C@@H](O)[C@H](O)[C@H]1O (stereo in doubt) [Metabolite M5]", "−"]
]}

* * *

test: Metabolite identification in dog bile after administration of parent compound; assay type: in vivo, beagle dogs; conditions: only 2-4 hr samples analyzed; cannot distinguish between M6 and M7
Endpoint: Relative Abundance of metabolite, Dog Bile (IV)

{"columns": ["Molecule", "Reading"],
 "data": [
  ["CC(CO)(COc1ccc2c(c1)ncn2-c1ccc2cccc(N3CCC(N)CC3)c2n1)C(=O)O (stereo not shown) [Metabolite M2]", "+ (minor metabolite)"],
  ["CC(CO)(COc1ccc2c(c1)ncn2-c1ccc2cccc(N3CCC(N)CC3)c2n1)COC1O[C@H](C(=O)O)[C@@H](O)[C@H](O)[C@H]1O (stereo in doubt) [Metabolite M5]", "−"],
  ["NC1CCN(c2cccc3ccc(-n4cnc5cc(O)ccc54)nc23)CC1 [Metabolite M8]", "+ (minor metabolite)"]
]}

* * *

assay: Metabolite identification, rat cryopreserved hepatocyte incubation of parent compound; assay type: in vitro ADME; conditions: parent incubated up to four hours
Endpoint: Relative Abundance of metabolite, Rat Hepatocytes

{"columns": ["Molecule", "Reading"],
 "data": [
  ["CC(CO)(CO)COc1ccc2c(c1)ncn2-c1ccc2cccc(N3CCC(N)CC3)c2n1 [Metabolite M1]", "+++ (major metabolite)"],
  ["CC(CO)(COc1ccc2c(c1)ncn2-c1ccc2cccc(N3CCC(N)CC3)c2n1)C(=O)O (stereo not shown) [Metabolite M2]", "+++ (major metabolite)"],
  ["NC1CCN(c2cccc3ccc(-n4cnc5cc(O)ccc54)nc23)CC1 [Metabolite M8]", "−"],
  ["CC(CO)(COc1ccc2c(c1)ncn2-c1ccc2cccc(N3CCC(N)CC3)c2n1)COC1O[C@H](C(=O)O)[C@@H](O)[C@H](O)[C@H]1O (stereo in doubt) [Metabolite M5]", "−"]
]}
